# Test system: Hela
# measurement-description: cells
# condition-label: Homo sapiens, HeLa
measured-attribute: pIC50
pIC50 field: float, defined as -log10 of concentration (mol/L).

Report pIC50 for COc1cccc2c1C(=O)c1c(O)c3c(c(O)c1C2=O)C[C@@](O)(C(=O)CO)C[C@@H]3O[C@H]1C[C@H](N)[C@H](O)[C@H](C)O1 [Doxo, doxorubicin, reference compound] please.
4.60

* * *

# measurement-description: Fluorescence titration of VEPEP-4 binding to small molecule cargo
# condition-label: cargo Doxorubicin
*1 amine or outer side, *2 acyl side, *3 side chain or, on linkers, in order; H or OH if unused. Where a SMILES comes first, the peptide text is derived from it. [ ]: non-standard residue; d: D form. Cysteamide = C(CS[*:3])N[*:1]; βAla = NCCC(=O)O
measured-attribute: Kd
Output should be the measured figure followed by the unit it is expressed in.

Dear colleague, I am looking for the recorded Kd of the following molecule: CC(=O)NCCC(=O)N[C@@H](Cc1c[nH]c2ccccc12)C(=O)N[C@@H](Cc1c[nH]c2ccccc12)C(=O)N[C@@H](CCCNC(=N)N)C(=O)N[C@@H](CC(C)C)C(=O)N[C@@H](CO)C(=O)N[C@@H](CC(C)C)C(=O)N[C@@H](CCCNC(=N)N)C(=O)N[C@@H](Cc1c[nH]c2ccccc12)C(=O)N[C@@H](Cc1c[nH]c2ccccc12)C(=O)NCCS [VEPEP-3i, X1WWRLSLRWW] (Ac-[βAla]WWRLSLRWW-Cysteamide)
50 nM
